Kindly supply the reported MIC values for the records listed here.
Test system: Pseudomonas aeruginosa GN 315
Assay Explanation: MIC, standard serial dilution method
Assay type: cell-based
Experimental Parameters: GN315; Pseudomonas aeruginosa GN 315; resistance mechanism AAC(6'); Mueller-Hinton agar, 37° C; read-out: MIC
Answer format: numeric, µg/mL implied, no suffix.

Field MIC (entry NCC[C@H](O)C(=O)N[C@@H]1C[C@H](N)[C@@H](O[C@H]2O[C@H](CN)[C@@H](O)C[C@H]2N)[C@H](F)[C@H]1O[C@H]1O[C@H](CO)[C@@H](O)[C@H](N)[C@H]1O [Compound 5F-TOB-AHB, reference compound] ) reads 1.56

MIC reading for "CN[C@@H]1[C@@H](O)[C@@H](O[C@H]2[C@H](N)C[C@H](N)[C@@H](O[C@H]3O[C@H](CN)CC[C@H]3N)C2(F)F)OC[C@]1(C)O" : 100
